Test system: rodent lifetime carcinogenesis bioassay, tumor incidence TD50
Test: carcinogenic potency in animals, long-term in vivo studies, CPDB compilation (AID 1745844)
Settings: rat; strain Fischer 344; males; in feed; site: liver; lesion: hepatocellular adenoma + hepatocellular carcinoma + neoplastic nodule; dosed 91 weeks; study length 103 weeks

[
  {
    "TEST_SMILES": "Cc1ccc(N)cc1N",
    "TD50, mg/kg/day": 8.11
  }
]

* * *

Test system: rodent lifetime carcinogenesis bioassay, tumor incidence TD50
Assay: carcinogenic potency in animals, long-term in vivo studies, CPDB compilation (AID 1745844)
Details: rat; strain Wistar; males; in feed; site: any site (literature study); lesion: malignant tumor; dosed 89 weeks; study length 89 weeks
PROPERTY_LABEL: TD50

[
  {
    "TEST_SMILES": "Nc1ccc2c(c1)oc1ccccc12",
    "PROPERTY_LABEL": "TD50",
    "VALUE": "2.48 mg/kg/day"
  }
]

* * *

System: rodent lifetime carcinogenesis bioassay, tumor incidence TD50
Assay: carcinogenic potency in animals, long-term in vivo studies, CPDB compilation (AID 1745844)
Conditions: mouse; strain CD-1 HaM/ICR; males; in feed; site: liver; lesion: several types; types named in the paper; dosed 77 weeks; study length 86 weeks
The source made the active and inactive calls. No rule for the calls is given here.
Outcome codes: TRUE for active, FALSE for inactive

[
  {
    "MOLECULE": "C1C2OC2C2C1C1CC2C2OC12 (configuration not stated)",
    "GROUP_LABEL": "FALSE"
  },
  {
    "MOLECULE": "Nc1ccccc1N",
    "GROUP_LABEL": "TRUE"
  }
]

* * *

Tested on: rodent lifetime carcinogenesis bioassay, tumor incidence TD50
Assay: carcinogenic potency in animals, long-term in vivo studies, CPDB compilation (AID 1745844)
Details: rat; strain SK&F Wistar; females; by gavage; site: gastric mucosa; lesion: carcinoid tumor, malignant; dosed 100 weeks; study length 100 weeks

[
  {
    "TEST_SMILES": "Cc1ccc(Cc2cnc(NCCSCc3ccc(CN(C)C)o3)[nH]c2=O)cn1",
    "TD50": "2990 mg/kg/day"
  }
]

* * *

System: rodent lifetime carcinogenesis bioassay, tumor incidence TD50
Assay: carcinogenic potency in animals, long-term in vivo studies, CPDB compilation (AID 1745844)
Conditions: mouse; strain B6C3F1; females; inhaled; site: subcutaneous tissue; lesion: sarcoma; dosed 105 weeks; study length 105 weeks

[
  {
    "TEST_SMILES": "[O]=[Mo](=[O])=[O]",
    "TD50 / mg/kg/day": 162
  }
]

* * *

Tested on: rodent lifetime carcinogenesis bioassay, tumor incidence TD50
Assay: carcinogenic potency in animals, long-term in vivo studies, CPDB compilation (AID 1745844)
Conditions: mouse; strain Swiss; females; by gavage; site: several sites; sites named in the paper; lesion: carcinoma; dosed 81 weeks; study length 83 weeks
PROPERTY_LABEL: TD50

[
  {
    "TEST_SMILES": "NNC(=O)c1ccncc1",
    "PROPERTY_LABEL": "TD50",
    "VALUE": "39.9 mg/kg/day"
  }
]

* * *

Tested on: rodent lifetime carcinogenesis bioassay, tumor incidence TD50
Assay: carcinogenic potency in animals, long-term in vivo studies, CPDB compilation (AID 1745844)
Conditions: mouse; strain Charles River CD1; males; in feed; site: liver; lesion: hepatocellular adenocarcinoma; dosed 104 weeks; study length 104 weeks
Activity calls are given as the source filed them. How the calls were made is not given here.

[
  {
    "MOLECULE": "O=C(O)C1=NN(c2ccc(S(=O)(=O)O)cc2)C(=O)C1N=Nc1ccc(S(=O)(=O)O)cc1 (stereo unspecified)",
    "TD50": "61100 mg/kg/day (inactive)"
  }
]
